Recorded Percent Control, one value per entry.
Tested on: LKB1
Construct: gene STK11
Details: Compound Concentration (nM):1000;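 note: KINOMEscan scanMAX binding as percent activity remaining versus control; lower means stronger binding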
Quantity name: Percent Control (%)

INSERT INTO results (compound, quantity_name, measure_unit, observed_result) VALUES
  ('CCc1ccc(Oc2nccc(-c3c(-c4ccc(F)cc4)ncn3C3CCNCC3)n2)cc1', 'Percent Control', '%', 84),
  ('Cl.O=C(Nc1ccc(Oc2ccc3[nH]c(NC(=O)c4ccccc4)nc3c2)cc1)Nc1cc(C(F)(F)F)ccc1F [GW709042A]', 'Percent Control', '%', 100),
  ('COC(=O)Nc1nc2ccc(Oc3ccc(NC(=O)Nc4cc(C(F)(F)F)ccc4F)cc3)cc2s1.Cl [GW693917A]', 'Percent Control', '%', 100),
  ('CCS(=O)(=O)c1ccc(OC)c(Nc2ncc(-c3cccc(OC)c3)o2)c1 [GW580509X]', 'Percent Control', '%', 100),
  ('CC1=C(C(=O)Nc2ccc3[nH]ncc3c2)C(c2ccc3ccccc3c2)CC(=O)N1 (centres unmarked) [GSK270822A]', 'Percent Control', '%', 100),
  ('CN1CCN(C(=O)c2ccc(NC(=O)Nc3ccc(N(C)c4ccnc(Nc5ccc(CS(C)(=O)=O)cc5)n4)cc3)cc2)CC1.Cl [GW830263A]', 'Percent Control', '%', 76),
  ('NS(=O)(=O)c1ccc(N/N=C2\C(=O)Nc3ccc(C(=O)NCCc4c[nH]cn4)cc32)cc1 [GW300660X]', 'Percent Control', '%', 100),
  ('COc1ccccc1-c1cc(/C=C2\C(=O)Nc3ncc(Br)cc32)cc(Br)c1O [GW442130X]', 'Percent Control', '%', 73);

====

Test system: ALK
Settings: Compound Concentration (nM):1000
Quantity name: Percent Control (%)

INSERT INTO results (compound, measure_unit, observed_result) VALUES
  ('CCS(=O)(=O)c1ccc(OC)c(Nc2ncc(-c3cccc(F)c3)o2)c1 [GW621970X]', '%', 73),
  ('NS(=O)(=O)c1ccc(N/N=C2\C(=O)Nc3ccc(C(=O)NCc4ccncc4)cc32)cc1 [GW300657X]', '%', 77),
  ('NS(=O)(=O)c1ccc(N/N=C2\C(=O)Nc3ccc(Cl)cc32)cc1 [GW280670X]', '%', 100),
  ('COc1ccc2[nH]c3c4[nH]c5ccc(OC)cc5c4c4c(c3c2c1)C(=O)NC4=O [GW296115X]', '%', 55),
  ('C/C(Nc1ccc(S(N)(=O)=O)cc1)=C1/C(=O)Nc2ccccc21 [GW335962X]', '%', 54),
  ('COc1cc2ncnc(Nc3ccc4c(cnn4Cc4ccccc4)c3)c2cc1OC.Cl [GW282449A]', '%', 93),
  ('Cc1cc(O)cc(C)c1/C=C/c1cncc(C(N)=O)c1 [GW435821X]', '%', 100),
  ('COc1cc(N2CCN(C(C)C)CC2)ccc1Nc1nc(Nc2ccc(F)cc2C(=O)NC[C@@H](O)CO)c2cc[nH]c2n1 [GSK1392956A]', '%', 0.2),
  ('C[C@@H](Oc1cc(-n2cnc3ccc(OC4CCN(C)CC4)cc32)sc1C(N)=O)c1ccccc1Cl [GSK579289A]', '%', 87),
  ('NS(=O)(=O)c1ccc(Nc2ncc(-c3ccccc3)o2)cc1 [GW572399X]', '%', 87),
  ('COc1cccc(-c2c[nH]c3c(N/N=C/c4ccncc4)ncnc23)c1 [GW814408X]', '%', 100),
  ('Cl.O=C(O[C@H]1CN[C@H](C#Cc2cc3ncnc(Nc4ccc5c(cnn5Cc5ccccc5)c4)c3s2)C1)N1CCOCC1 [GSK200398A]', '%', 100),
  ('COc1ccccc1-c1cc(/C=C2\C(=O)Nc3ncc(Br)cc32)cc(Br)c1O [GW442130X]', '%', 100),
  ('Nc1ncnc2occ(-c3ccc(NC(=O)Nc4cc(C(F)(F)F)ccc4F)cc3)c12 [GW770249X]', '%', 36),
  ('Cl.O=C(Nc1ccc(Oc2ccc3[nH]c(NC(=O)c4ccco4)nc3c2)cc1)Nc1cc(C(F)(F)F)ccc1F [GW683134A]', '%', 88),
  ('CCS(=O)(=O)c1ccc(OC)c(Nc2ncc(-c3cccc(OC)c3)o2)c1 [GW580509X]', '%', 100),
  ('CN(C)CCNC(=O)Nc1ccc(N(C)c2ccnc(Nc3ccc(CS(C)(=O)=O)cc3)n2)cc1.Cl [GW830900A]', '%', 71);

====

Test system: CAMK2G
Details: Compound Concentration (nM):1000
Quantity name: Percent Control (%)

INSERT INTO measurements (compound, measure_unit, observed_result) VALUES
  ('CN(C)c1cc2c(Nc3ccc4c(cnn4Cc4ccccc4)c3)ncnc2cn1 [GW282974X]', '%', 82),
  ('COc1ccc(COc2ccc(Cc3cnc(N)nc3N)cc2OC)cc1 [GW632580X]', '%', 99),
  ('NS(=O)(=O)c1ccc(N/N=C2\C(=O)Nc3ccc(Cl)cc32)cc1 [GW280670X]', '%', 100),
  ('CN1CCN(C(=O)c2ccc(NC(=O)Nc3ccc(N(C)c4ccnc(Nc5ccc(CS(C)(=O)=O)cc5)n4)cc3)cc2)CC1.Cl [GW830263A]', '%', 100),
  ('COc1cccc(-n2ncc3c(N/N=C/c4ccncc4)ncnc32)c1 [GW784752X]', '%', 100),
  ('NS(=O)(=O)c1ccc(N/N=C2\C(=O)Nc3ccc(C(=O)NCc4ccncc4)cc32)cc1 [GW300657X]', '%', 82),
  ('C[C@@H](Oc1cc(-n2cnc3ccc(OC4CCN(C)CC4)cc32)sc1C(N)=O)c1ccccc1Cl [GSK579289A]', '%', 69),
  ('NS(=O)(=O)c1ccc(N/N=C2\C(=O)Nc3ccc(-c4cnco4)cc32)cc1 [GW276655]', '%', 91),
  ('Cl.O=C(O[C@H]1CN[C@H](C#Cc2cc3ncnc(Nc4ccc5c(cnn5Cc5ccccc5)c4)c3s2)C1)N1CCOCC1 [GSK200398A]', '%', 96),
  ('NS(=O)(=O)c1ccc(N/N=C2\C(=O)Nc3ccc(C(=O)NCCc4c[nH]cn4)cc32)cc1 [GW300660X]', '%', 100),
  ('CCc1ccc(Oc2nccc(-c3c(-c4ccc(F)cc4)ncn3C3CCNCC3)n2)cc1 [SB-242719]', '%', 100),
  ('NS(=O)(=O)c1ccc(Nc2ncc(-c3ccccc3)o2)cc1 [GW572399X]', '%', 100),
  ('Cl.O=C(Nc1ccc(Oc2ccc3[nH]c(NC(=O)c4ccco4)nc3c2)cc1)Nc1cc(C(F)(F)F)ccc1F [GW683134A]', '%', 100),
  ('CCn1c(-c2nonc2N)nc2c(C#CC(C)(C)O)nc(OCCNC)cc21.Cl [GSK949675]', '%', 100),
  ('Cl.O=S1CCN(Cc2ccc(-c3ccc4ncnc(Nc5ccc(OCc6ccccc6)c(F)c5)c4c3)o2)CC1 [GW576924A]', '%', 100),
  ('O=C1Nc2ccc(C(=O)c3ccco3)cc2C1=Cc1cc(Cl)c(O)c(Cl)c1 [GW406108X]', '%', 77),
  ('Cl.O=C(Nc1ccc(Oc2ccc3[nH]c(NC(=O)c4ccccc4)nc3c2)cc1)Nc1cc(C(F)(F)F)ccc1F [GW709042A]', '%', 100);

====

Tested on: AURKA
Settings: Compound Concentration (nM):1000
Recorded Percent Control, one value per entry.
Quantity name: Percent Control (%)

INSERT INTO measurements (molecule, quantity_name, observed_result) VALUES
  ('CCn1c(-c2nonc2N)nc2c(C#CC(C)(C)O)nc(OCCNC)cc21.Cl', 'Percent Control', 90),
  ('COc1cc(N2CCN(C(C)C)CC2)ccc1Nc1nc(Nc2ccc(F)cc2C(=O)NC[C@@H](O)CO)c2cc[nH]c2n1 [GSK1392956A]', 'Percent Control', 95),
  ('Cl.O=S1CCN(Cc2ccc(-c3ccc4ncnc(Nc5ccc(OCc6ccccc6)c(F)c5)c4c3)o2)CC1 [GW576924A]', 'Percent Control', 100),
  ('NS(=O)(=O)c1ccc(Nc2ncc(-c3ccccc3)o2)cc1 [GW572399X]', 'Percent Control', 100),
  ('COc1ccccc1-c1cc(/C=C2\C(=O)Nc3ncc(Br)cc32)cc(Br)c1O [GW442130X]', 'Percent Control', 25),
  ('Cl.c1ccc(Cc2nc3ccc(Nc4ncnc5ccccc45)cc3[nH]2)cc1 [GR269666A]', 'Percent Control', 100),
  ('CCS(=O)(=O)c1ccc(OC)c(Nc2ncc(-c3cccc(F)c3)o2)c1 [GW621970X]', 'Percent Control', 100),
  ('C[C@@H](Oc1cc(-n2cnc3ccc(OC4CCN(C)CC4)cc32)sc1C(N)=O)c1ccccc1Cl [GSK579289A]', 'Percent Control', 76),
  ('CC1=C(C(=O)Nc2ccc3[nH]ncc3c2)C(c2ccc3ccccc3c2)CC(=O)N1 (stereo not drawn) [GSK270822A]', 'Percent Control', 39);
